biological target: GAL4 DBD-VP16 fusion transactivation (Human herpesvirus 1 VP16); experiment: GAL4-VP16 transactivation reporter inhibitors, late-stage follow-up, counter-screen for SRC3 inhibitor project, cell-based, luminescence, dose response, powder samples (AID 651781); conditions: HEK293 GAL4-VP16 UAS luciferase reporter
Active and inactive are the calls of the source.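 The calls were made as follows: active = IC50 at or below 10 µM; inactive = IC50 above 10 µM.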
Write down one outcome, taken from 1 for active, -1 for inactive

Worked set:
CN1C(=O)C2(C(C#N)=C(N)N(c3cc(Cl)cc(Cl)c3)C3=C2C(=O)CC(C)(C)C3)c2ccccc21 (stereo not drawn)    -1
Cc1ccc(OCC(=O)c2cc(C)n(-c3ccccc3)c2C)c([N+](=O)[O-])n1    -1
O=C(Nc1ccccc1Oc1ccccc1)c1cc([N+](=O)[O-])ccc1Cl    -1
CN1C(=O)C2(C(C#N)=C(N)N(c3cc(Cl)cc(Cl)c3)C3=C2C(=O)CCC3)c2ccccc21 (stereo not drawn)    -1
O=C(COC(=O)c1ccc[nH]c1=O)Nc1ccc(N2CCCCC2)cc1    -1
OCCN1CCN(C(=S)c2ccc(-c3ccccc3)cc2)CC1    -1
CC(C)(C)c1ccc(-c2noc(CCC(=O)Nc3cccnc3)n2)cc1    1

Please examine the following record next.
// query Called result for CCCNC(=O)c1nnsc1S(=O)(=O)c1ccc(Cl)cc1
// result 1
